system: Chlorella vulgaris; assay: Antialagal activity against Chlorella vulgaris Beji assessed as reduction in chlorophyll content after 7 days; assay type: functional, organism-based; conditions: 168 h
Could you please report measured IC50 for the items listed next?
Numbers only, in µM.

Solved entries (count: 5):
molecule.smiles: O=C(Nc1ccc(F)cc1)c1cncc(Cl)n1
result.type: IC50
result.units: µM
reported.value: 32.3
--
molecule.smiles: CN(C)C(=O)Nc1ccc(Cl)c(Cl)c1
result.type: IC50
result.units: µM
reported.value: 7.3
--
molecule.smiles: Cc1ccc(NC(=O)c2cncc(Cl)n2)cc1
result.type: IC50
result.units: µM
reported.value: 37.4
--
molecule.smiles: Cc1ccc(NC(=O)c2cnccn2)cc1
result.type: IC50
result.units: µM
reported.value: 70.9
--
molecule.smiles: CC(C)(C)c1cnc(C(=O)Nc2ccccc2C(F)(F)F)cn1
result.type: IC50
result.units: µM
reported.value: 32.9

Read the next record carefully.
Request: So what IC50 did O=C(Nc1cccc(C(F)(F)F)c1)c1cncc(Cl)n1 get with Chlorella vulgaris?
Response: 12.1

Values compiled from ChEMBL document CHEMBL1141660.
